# ASSAY PROTOCOL: Cellular Toxicity (caspase-3) Mesangial (AID 660);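 further: combined caspase 3 and 7 activity read by Caspase-Glo luminescence; cells exposed to compound for 16 h before the caspase read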
# CONDITION DETAILS: mesangial cells, normalized: DMSO 0%, 100 µM tamoxifen 100%; at 91.7 µM (top of the series)
Record form. Attribute: caspase-3 activation. Fill in for each entry.
Answers are plain numbers, in %.

Here's what some known entries look like.
CNC(=O)N(c1ccccc1)c1ccccc1 | 0.477
CC(CCl)OC(C)CCl (stereo unspecified) | -0.591
CNc1ccc([N+](=O)[O-])cc1 | 0.0307
Cc1cc(C)c(N)cc1C | -0.153
Cc1ccccc1C#N | 0.378
CSc1ccc(C=O)cc1 | -0.251
FC(F)(F)c1ccccc1Cl | 1.05
CC(O)CC(C)O (stereo unspecified) | 0.0132

Please look at the items below and tell me caspase-3 activation for each one, in order.
1. CC(C)(O)CCC(C)(C)O
2. C=Cc1ccc(C=C)cc1
3. CC(=O)OC(C)=O
4. O=c1[nH][nH]c(=O)c2cc([N+](=O)[O-])ccc12

### Response
[-1.06, -0.657, 0.184, -0.0154]

###

# ASSAY PROTOCOL: qHTS assay for small molecule agonists of the antioxidant response element (ARE) signaling pathway measured by Nrf2-dependant transcriptional activity - cell viability counter screen (AID 720653); further: on the % scale 0 is the no-effect control and ±100 the full control effect
# CONDITION DETAILS: ARE-bla HepG2 viability, CellTiter-Glo ATP luminescence, 16 h; hits give low values
Records with an inconclusive call do not appear.
TEST READOUT: max response (%)
Numbers only, in %.

Here's what some known entries look like.
COc1ccc(N=[N+]([O-])c2ccc(OC)cc2)cc1 | -28.6
CCC1CO1 (configuration not stated) | 1.19
Nc1ccc([N+](=O)[O-])c(N)c1 | -4.59
Cc1ccc(Cl)cc1N | 6.01
OCCO | -3.22
NS(=O)(=O)O | 3.57
COCCOC(=O)c1ccccc1C(=O)OCCOC | 9.02
CO[Si](CCCNCCC[Si](OC)(OC)OC)(OC)OC | -1.66

Please look at the items below and tell me max response for each one, in order.
1. CC(=O)Nc1ccc(N)cc1
2. CCCC(C)CO (configuration not stated)
3. CCCCCCCN
4. O=[N+]([O-])c1ccc(NCCO)c(OCCO)c1
5. Nc1c(Cl)cc(Cl)cc1Cl

### Response
1. 2.9
2. 13.6
3. -1.43
4. 6.98
5. -2.36

Please look at the items below and tell me max response for each one, in order.
1. O=C1C=CCCC1
2. CC/C=C/C#N

### Response
1: 4.99; 2: 1.63

Please look at the items below and tell me max response for each one, in order.
1. C=C(C)OC(C)=O
2. CCc1ccccc1O

### Response
7.41
4.85

###

# ASSAY PROTOCOL: Cell Viability - LYMP2-007 (AID 979);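 further: cells exposed to compound for 24 h before reading; 0% = DMSO only and the negative end = 92 µM tetraoctylammonium bromide; nearly all actives have a fitted effect of over 60% in size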
# CONDITION DETAILS: LYMP2-007 lymphoblastoid cell viability; series mostly up to 92.2 µM
Inconclusive results are not listed. Active and inactive are the calls of the source. Calls come from the whole dose curve; as a rule, active = well fitted cell-killing curve with a large enough effect; inconclusive = small, poorly fitted or top-dose-only effect; inactive = flat fitted curve, though single readings scatter.
Pick one: active, inactive

For orientation, consider the following solved cases.
C(=C/c1ccccc1)/c1ccccc1 | inactive
CC(C)Cc1nccs1 | inactive
CC(O)COC(C)(C)C (stereo not given) | inactive

### Prompt Short answer needed: outcome of this test for CC(=O)C1(C)CC2=C(CCCC2(C)C)CC1C (stereo not given) ?
### Response inactive

### Prompt Short answer needed: outcome of this test for O=[N+]([O-])c1cccc(C(F)(F)F)c1 ?
### Response inactive

### Prompt Short answer needed: outcome of this test for CCNS(=O)(=O)c1ccc(C)cc1 ?
### Response inactive

### Prompt Short answer needed: outcome of this test for Cc1cc(C)cc([N+](=O)[O-])c1 ?
### Response inactive

Numbers sourced from PubChem BioAssay (NCATS).
